# System: 496974-208-R-J2-PDC complex spheroids, growth % test/control;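 also: spheroids exposed to the drugs for 7 days before readout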
# METHOD: Anticancer human tumor 496974-208-R-J2-PDC patient-derived pancreatic carcinoma cell line growth inhibition [CLK]; active = viability on the fitted dose curve at most 10% of control; inactive = the rest
# ASSAY_SETUP: second compound 0.316 µM; first compound 1 µM
Possible outcomes: active, inactive

COMPOUND	GROUP_LABEL
C=CC(=O)N1CCN(c2nc(=O)n(-c3c(C)ccnc3C(C)C)c3nc(-c4c(O)cccc4F)c(F)cc23)C(C)C1 (configuration not stated) + CNC(=O)c1ccc(Nc2nc(OC3CCCC3)c3c(-c4ccc5nc(C)oc5c4)c[nH]c3n2)c(OC)c1	inactive
CC1(C)CCC(CN2CCN(c3ccc(C(=O)NS(=O)(=O)c4ccc(NCC5CCOCC5)c([N+](=O)[O-])c4)c(Oc4cnc5[nH]ccc5c4)c3)CC2)=C(c2ccc(Cl)cc2)C1 + CN1CCN(c2cc(C(=O)Nc3cc4cc(-c5cnn(C)c5)ccc4cn3)ccn2)CC1	active
